Source listed as patent US4298739A.

# PROTOCOL SUMMARY: Acute toxicity test, oral administration to mice
# Type: in vivo
# EXPERIMENTAL PARAMETERS: mouse, in vivo, Male mice
# Procedure: The test compounds were administered orally to the mice and LD50 (mg/kg) of the compounds was determined.
Parameter LD50: see the listing below.

Look over these answered cases.
In: Find the recorded LD50 belonging to CCCCCOC(=O)CCCOc1ccc2c(c1)CCC(=O)N2 [compound 33, reference compound] and report it.
Out: > 1000 mg/kg

In: Find the recorded LD50 belonging to CCN1C(=O)CCc2c(OCCCC(=O)NCc3ccccc3)cccc21 [compound 44, reference compound] and report it.
Out: 500 to 600 mg/kg

In: Find the recorded LD50 belonging to `CCN(C(=O)CCCOc1c(Cl)cc(Cl)c2c1CCC(=O)N2)c1ccccc1` and report it.
Out: > 1000 mg/kg

In: Find the recorded LD50 belonging to `COc1ccc(CCN(Cc2ccccc2)C(=O)CCCOc2ccc3c(c2)CCC(=O)N3)cc1OC` and report it.
Out: > 1000 mg/kg

In: Find the recorded LD50 belonging to CCOC(=O)C(C)Oc1ccc2c(c1)CCC(=O)N2 (centres unmarked) [compound 25, reference compound] and report it.
Out: > 1000 mg/kg

In: Find the recorded LD50 belonging to `O=C1CCc2cc(OCCCC(=O)N(C3CCCCC3)C3CCCCC3)ccc2N1` and report it.
Out: > 1000 mg/kg

In: Find the recorded LD50 belonging to O=C1CCc2c(cccc2OCC(=O)N2CCOCC2)N1 [compound 42, reference compound] and report it.
Out: 400 to 600 mg/kg

Okay, now this compound:
In: Find the recorded LD50 belonging to `CCCCN(C(=O)CCCCOc1ccc2c(c1)CCC(=O)N2)C1CCCCC1` and report it.
Out: > 1000 mg/kg
